List of IC50 tested on Dual specificity tyrosine-phosphorylation-regulated kinase 1B (Homo sapiens).
Sequence (Q9Y463 whole entry): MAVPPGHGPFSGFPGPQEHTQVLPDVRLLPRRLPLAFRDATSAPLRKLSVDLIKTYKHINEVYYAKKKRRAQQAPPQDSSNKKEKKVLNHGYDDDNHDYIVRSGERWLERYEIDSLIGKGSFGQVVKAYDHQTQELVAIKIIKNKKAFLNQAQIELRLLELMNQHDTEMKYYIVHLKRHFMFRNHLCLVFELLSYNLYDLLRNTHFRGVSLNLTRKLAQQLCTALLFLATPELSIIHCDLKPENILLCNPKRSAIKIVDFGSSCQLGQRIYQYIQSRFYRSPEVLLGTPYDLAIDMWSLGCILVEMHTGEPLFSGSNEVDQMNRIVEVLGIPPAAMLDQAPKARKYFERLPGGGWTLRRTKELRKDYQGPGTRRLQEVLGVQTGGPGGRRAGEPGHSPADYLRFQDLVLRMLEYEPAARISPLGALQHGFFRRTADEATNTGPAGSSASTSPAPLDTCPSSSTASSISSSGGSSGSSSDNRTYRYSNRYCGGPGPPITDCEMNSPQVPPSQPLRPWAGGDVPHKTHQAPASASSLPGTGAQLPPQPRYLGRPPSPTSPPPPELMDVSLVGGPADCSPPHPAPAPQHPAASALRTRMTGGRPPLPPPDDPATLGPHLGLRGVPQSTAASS
reported property: IC50 (nM)

test smiles: CCNc1nccc(-c2cnn(-c3ccccc3F)c2)n1
tested target: Dual specificity tyrosine-phosphorylation-regulated kinase 1B (Homo sapiens)
IC50 / nM: 3000

test smiles: Fc1ccccc1-n1cc(-c2ccnc(NCc3ccncc3)n2)cn1
tested target: Dual specificity tyrosine-phosphorylation-regulated kinase 1B (Homo sapiens)
IC50 / nM: 4000

[P] COc1ccccc1-n1cc(-c2ccnc(NCc3c(C)n[nH]c3C)n2)cn1
[Q] Fc1ccccc1-n1cc(-c2ccnc(NC3CCOCC3)n2)cn1
// query Identify the entry with the smaller IC50: P or Q . Identify your pick by its label.
// result Q

Sourced from ChEMBL document CHEMBL4742399
